Values were extracted from ChEMBL document CHEMBL2385009.

- Test system: RAW264.7
- assay.notes: Antiinflammatory activity in mouse RAW264.7 cells assessed as inhibition of LPS-induced nitric oxide production after 24 hrs by Griess assay
- Type: functional, cell-based
- condition.set: RAW264.7, 24 h
pIC50: −log10 of the molar value.
We begin with a simple list: items and their reported pIC50.

[
  {
    "compound": "CC(C)=C1C[C@H]2[C@H](CC[C@]2(C)O)[C@@](C)(O)CC1=O [ISOZEDOARONDIOL]",
    "pIC50": 5.85
  },
  {
    "compound": "CC1=CC(=O)C(=C(C)C)C[C@@]2(O)[C@H]1CC[C@]2(C)O [PROCURCUMADIOL]",
    "pIC50": 4.93
  },
  {
    "compound": "CC(=O)CCc1ccc(C(C)(C)O)c(=O)cc1C [CURCUMADIONOL]",
    "pIC50": 4.27
  },
  {
    "compound": "CC1=C2C[C@@H]3[C@@](C)(O)CC[C@@]3(O)[C@](C)(O)C=C2OC1=O",
    "pIC50": 5.52
  },
  {
    "compound": "CC1=C2C[C@@H]3[C@@](C)(O)CC[C@]34O[C@]4(C)[C@H](O)[C@]2(O)OC1=O [ZEDOAROLIDE A]",
    "pIC50": 4.06
  },
  {
    "compound": "CC(C)C1=C[C@@H]2[C@@H](CC[C@@H]2C)[C@@](C)(O)CC1",
    "pIC50": 4.94
  },
  {
    "compound": "CC1=CC(=O)CC[C@@H]2[C@@](C)(O)CC[C@@]12O",
    "pIC50": 4.71
  },
  {
    "compound": "CC1=C2C[C@H]3[C@H](CC[C@]3(C)O)[C@@](C)(O)C[C@@H]2OC1=O [ZEDOALACTONE C]",
    "pIC50": 4.21
  },
  {
    "compound": "CC(C)C1=C[C@H]2[C@@H](CC[C@]2(C)O)[C@](C)(O)CC1 [ALISMOXIDE]",
    "pIC50": 5.37
  }
]
